Tested on: SRS-A-induced contractions of guinea-pig ileum
assay procedure: Inhibition of SRS-A-induced contractions of isolated guinea-pig ileum
Set-up: species or system guinea-pig (male Hartley)
measurement conditions: Cavia porcellus, 20 min, submaximal concentration of SRS-A, incubation 20 minutes
assay readout: pIC50
Give bare numbers, as −log10 of the molar value.

I have this compound here, O=C(O)CCc1ccccc1NC(=O)c1ccc(OCCCCc2ccccc2)cc1 [Example 18] , and I need its recorded pIC50. 7.48

Okay, here is my list. What is pIC50 for each of these?
1. CCOC(=O)CCc1ccccc1NC(=O)c1ccc(OCCCCc2ccccc2)cc1 [Example 10]
2. O=C(O)COc1ccc([N+](=O)[O-])cc1NC(=O)c1ccc(OCCCCc2ccccc2)cc1 [Example 41]
3. O=C(O)COc1ccc(Cl)cc1NC(=O)c1ccc(OCCCCc2ccccc2)cc1 [Example 40]
4. O=C(O)COc1ccccc1NC(=O)c1ccc(OCCCCc2ccccc2)cc1 [Example 42]

[7.74, 8.13, 8.44, 7.09]

Okay, here is my list. What is pIC50 for each of these?
1. CCCCCCCOc1cccc(C(=O)Nc2ccccc2OCc2nnn[nH]2)c1 [Example 23]
2. Cc1ccc(OCC(=O)O)c(NC(=O)c2ccc(OCCCCc3ccccc3)cc2)c1 [Example 39]

1: 7.36; 2: 8.14
